meta.source: BindingDB's records for doi:10.1016/j.bmc.2015.09.025

Entries and their IC50
Assay procedure: Antiosteoclast activity in mouse BMM cells assessed as reduction of RANKL-induced osteoclasts differentiation by measuring TRAP positive multinucleated cells after 4 days by light microscopy
Observation type: IC50 (nM)

[
  {
    "Compound": "CCc1ccc(Nc2nc3cc(NC(=O)CCCCOc4ccc(/C(N)=N/O)cc4)ccc3o2)cc1",
    "Observation type": "IC50",
    "Unit": "nM",
    "Modifier sign": "=",
    "Reported": 1310
  },
  {
    "Compound": "COc1ccc(Nc2nc3cc(NC(=O)CCCCOc4ccc(/C(N)=N/O)cc4)ccc3o2)cc1",
    "Observation type": "IC50",
    "Unit": "nM",
    "Modifier sign": "=",
    "Reported": 580
  },
  {
    "Compound": "CC(c1cc2ccccc2s1)N(O)C(N)=O (racemic) [Leutrol]",
    "Observation type": "IC50",
    "Unit": "nM",
    "Modifier sign": ">",
    "Reported": 20000
  },
  {
    "Compound": "N/C(=N\\O)c1ccc(OCCCCC(=O)Nc2ccc3oc(Nc4ccccc4)nc3c2)cc1",
    "Observation type": "IC50",
    "Unit": "nM",
    "Modifier sign": "=",
    "Reported": 560
  }
]
